assay.explanation: Serum paroxetine level monitoring after self-poisoning
Type: in vivo, human
condition.set: human, serum, oral; day 8 after ingestion of 4000 mg paroxetine (80 mg/kg), multidrug poisoning, one patient
readout.kind: concentration at 8 day (ng/mL)
One number for each entry, in ng/mL.

Please fill in: concentration at 8 day reported for Fc1ccc([C@@H]2CCNC[C@H]2COc2ccc3c(c2)OCO3)cc1 [paroxetine] = 3410
